- tested_target: Bovine trypsin (Bos taurus, UniProt P00760)
- Construct: purchased Worthington Biochemicals, Freehold, N.J
- Sequence (P00760 24-246): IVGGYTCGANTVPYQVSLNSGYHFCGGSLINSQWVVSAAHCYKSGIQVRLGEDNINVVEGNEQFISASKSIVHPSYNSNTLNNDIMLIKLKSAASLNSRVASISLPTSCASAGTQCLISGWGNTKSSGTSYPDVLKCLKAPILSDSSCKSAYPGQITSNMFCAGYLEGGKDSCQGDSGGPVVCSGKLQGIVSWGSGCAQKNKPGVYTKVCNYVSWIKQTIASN
- assay_explanation: Serine protease selectivity, Kass, trypsin chromogenic assay
- Format: biochemical
- test_conditions: apparent association constant
- Description: […]
Square brackets hold non-standard residues; d marks the D form. Peptide text beside a SMILES is read from it. dPip = O=C(O)[C@H]1CCCCN1; Nphe = O=C(O)CNCc1ccccc1
metric_name: Enzyme Kass Trypsin (L/mol × 10^6)

Consider the reported Enzyme Kass Trypsin for these compounds:
compound="Cl.Cl.N=C(N)NCCC[C@@H](C=O)NC(=O)CN(CCC(=O)O)C(=O)[C@H]1CCCCN1 [Example 13, D--hPro--N(CH2 CH2 COOH)Gly--ArgH.2HCl]" metric_name="Enzyme Kass Trypsin" value_reported=0.48
compound=Cl.Cl.N=C(N)NCCC[C@@H](C=O)NC(=O)CN(CCCC(=O)O)C(=O)[C@H]1CCCCN1 metric_name="Enzyme Kass Trypsin" value_reported=0.60
compound="CNCC(=O)N(CCc1ccccc1)CC(=O)N[C@H](C=O)CCCNC(=N)N.Cl.Cl [Example 17, Sar--N(CH2 CH2 Ph)Gly--ArgH.2HCl]" metric_name="Enzyme Kass Trypsin" value_reported=0.38

[a] CC(C)N(CC(=O)NC(C=O)CCCNC(=N)N)C(=O)C1CCCCN1.Cl.Cl [Example 4, D--hPro--N(i--Pr)Gly--ArgH.2HCl]
[b] CCCN(CC(=O)N[C@H](C=O)CCCNC(=N)N)C(=O)[C@H]1CCCCN1.Cl.Cl
[c] Cl.Cl.N=C(N)NCCC[C@@H](C=O)NC(=O)CN(Cc1ccccc1)C(=O)[C@H]1CCCCN1 [Example 7, D--hPro--N(Bn)Gly--ArgH.2HCl] (H-[dPip]-[Nphe]-Arg-aldehyde)
Task item: List by increasing Enzyme Kass Trypsin. Return the labels ranked in the requested order, please.
Reply: a, b, c
(a: 0.5 L/mol × 10^6, b: 2.4 L/mol × 10^6, c: 10 L/mol × 10^6)

* * *

- tested_target: factor Xa (Homo sapiens, UniProt P00742)
- Construct: Human factors X, Xa, IXa, XIa, and XIIa are purchased from Enzyme Research Laboratories; purchased Enzyme Research Laboratories, South Bend, Ind
- Sequence (P00742 235-488 limits assumed): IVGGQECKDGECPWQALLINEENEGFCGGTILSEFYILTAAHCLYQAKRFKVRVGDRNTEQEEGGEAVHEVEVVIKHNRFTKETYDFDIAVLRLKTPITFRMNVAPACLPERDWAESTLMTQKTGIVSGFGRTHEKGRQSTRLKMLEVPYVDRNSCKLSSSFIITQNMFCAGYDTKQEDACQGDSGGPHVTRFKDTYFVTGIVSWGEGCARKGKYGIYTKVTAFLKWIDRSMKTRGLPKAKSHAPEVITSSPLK
- Sequence (P00742 41-179 partner limits assumed): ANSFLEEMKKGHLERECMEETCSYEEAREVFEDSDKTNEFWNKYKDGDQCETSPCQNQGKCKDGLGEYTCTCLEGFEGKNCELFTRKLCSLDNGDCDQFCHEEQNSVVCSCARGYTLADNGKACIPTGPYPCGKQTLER
- assay_explanation: Serine protease selectivity, Kass, factor Xa chromogenic assay
- Type: biochemical
- test_conditions: apparent association constant
Square brackets hold non-standard residues; d marks the D form. Peptide text beside a SMILES is read from it. dPip = O=C(O)[C@H]1CCCCN1; Nphe = O=C(O)CNCc1ccccc1; Nleu = CC(C)CNCC(=O)O; NEtG = CCNCC(=O)O; Sar = CNCC(=O)O
metric_name: Enzyme Kass Xa (L/mol × 10^6)

Consider the reported Enzyme Kass Xa for these molecules:
molecule="CCS(=O)(=O)N[C@H](Cc1ccccc1)C(=O)N(C)CC(=O)N[C@H](C=O)CCCNC(=N)N.Cl.Cl [Example 16]" readout_unit="L/mol × 10^6" value_reported=3.3
molecule="Cl.Cl.N=C(N)NCCC[C@@H](C=O)NC(=O)CN(CCC(=O)O)C(=O)[C@H]1CCCCN1 [Example 13, D--hPro--N(CH2 CH2 COOH)Gly--ArgH.2HCl]" readout_unit="L/mol × 10^6" value_reported=0.051
molecule="Cl.Cl.N=C(N)NCCC[C@@H](C=O)NC(=O)CN(Cc1ccccc1)C(=O)[C@H]1CCCCN1 [Example 7, D--hPro--N(Bn)Gly--ArgH.2HCl] (H-[dPip]-[Nphe]-Arg-aldehyde)" readout_unit="L/mol × 10^6" value_reported=0.25
molecule="CNCC(=O)N(CCc1ccccc1)CC(=O)N[C@H](C=O)CCCNC(=N)N.Cl.Cl [Example 17, Sar--N(CH2 CH2 Ph)Gly--ArgH.2HCl]" readout_unit="L/mol × 10^6" value_reported=2.2
molecule="CC(C)CN(CC(=O)N[C@H](C=O)CCCNC(=N)N)C(=O)[C@H]1CCCCN1.Cl.Cl [Example 5, D--hPro--N(i--Bu)Gly--ArgH.2HCl] (H-[dPip]-[Nleu]-Arg-aldehyde)" readout_unit="L/mol × 10^6" value_reported=0.060

[1] Cl.Cl.N=C(N)NCCC[C@@H](C=O)NC(=O)CN(CCCC(=O)O)C(=O)[C@H]1CCCCN1 [Example 14]
[2] Cl.Cl.NC(N)=NCCC[C@@H](C=O)NC(=O)CN(CCC1CCCCC1)C(=O)[C@H]1CCCCN1 [Example 10]
[3] CN(CC(=O)N[C@H](C=O)CCCNC(=N)N)C(=O)[C@H]1CCCCN1.Cl.Cl [Example 1] (H-[dPip]-[Sar]-Arg-aldehyde)
[4] CCN(CC(=O)N[C@H](C=O)CCCNC(=N)N)C(=O)[C@H]1CCCCN1.Cl.Cl [Example 2] (H-[dPip]-[NEtG]-Arg-aldehyde)
Task item: List from greatest to least Enzyme Kass Xa. Return the labels ranked in the requested order, please.
Reply: 2, 3, 1, 4

* * *

- tested_target: tissue plasminogen activator (t-PA) (Homo sapiens)
- Construct: purchased American Diagnostica, Greenwich, Conn
- Sequence (P00750 36-562): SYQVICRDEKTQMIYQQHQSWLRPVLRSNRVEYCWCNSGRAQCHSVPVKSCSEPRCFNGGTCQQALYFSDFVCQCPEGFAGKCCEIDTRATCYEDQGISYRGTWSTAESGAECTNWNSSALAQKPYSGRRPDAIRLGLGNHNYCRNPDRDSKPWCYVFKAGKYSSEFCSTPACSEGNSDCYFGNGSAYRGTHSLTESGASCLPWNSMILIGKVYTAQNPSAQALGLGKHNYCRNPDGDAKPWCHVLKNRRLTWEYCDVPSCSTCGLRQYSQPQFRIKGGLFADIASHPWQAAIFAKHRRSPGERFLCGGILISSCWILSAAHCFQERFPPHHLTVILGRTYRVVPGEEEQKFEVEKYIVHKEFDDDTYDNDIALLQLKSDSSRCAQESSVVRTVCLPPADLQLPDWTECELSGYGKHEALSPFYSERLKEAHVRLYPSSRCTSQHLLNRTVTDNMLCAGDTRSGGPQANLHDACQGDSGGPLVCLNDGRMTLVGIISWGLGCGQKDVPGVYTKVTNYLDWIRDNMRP
- assay_explanation: Fibrinolytic protease selectivity, Kass, t-PA chromogenic assay
- Format: biochemical
- test_conditions: apparent association constant
Square brackets hold non-standard residues; d marks the D form. Peptide text beside a SMILES is read from it. dPip = O=C(O)[C@H]1CCCCN1; Sar = CNCC(=O)O
metric_name: Enzyme Kass t-PA (L/mol × 10^6)

Consider the reported Enzyme Kass t-PA for these molecules:
molecule="Cc1ccccc1N(CC(=O)N[C@H](C=O)CCCN=C(N)N)C(=O)[C@H]1CCCCN1.Cl.Cl [Example 12, D--hPro--N(o--Me--Ph)Gly--ArgH.2HCl]" metric_name="Enzyme Kass t-PA" readout_unit="L/mol × 10^6" value_reported=0.0064
molecule="Cl.Cl.N=C(N)NCCC[C@@H](C=O)NC(=O)CN(CCCCC(=O)O)C(=O)[C@H]1CCCCN1 [Example 15]" metric_name="Enzyme Kass t-PA" readout_unit="L/mol × 10^6" value_reported=0.001
molecule="CC(C)CCN(CC(=O)N[C@H](C=O)CCCN=C(N)N)C(=O)[C@H]1CCCCN1.Cl.Cl [Example 6, D--hPro--N(isoamyl)Gly--ArgH.2HCl]" metric_name="Enzyme Kass t-PA" readout_unit="L/mol × 10^6" value_reported=0.004
molecule="Cl.Cl.N=C(N)NCCC[C@@H](C=O)NC(=O)CN(CCC(=O)O)C(=O)[C@H]1CCCCN1 [Example 13, D--hPro--N(CH2 CH2 COOH)Gly--ArgH.2HCl]" metric_name="Enzyme Kass t-PA" readout_unit="L/mol × 10^6" value_reported=0.001

[P] CN(CC(=O)N[C@H](C=O)CCCNC(=N)N)C(=O)[C@H]1CCCCN1.Cl.Cl [Example 1] (H-[dPip]-[Sar]-Arg-aldehyde)
[Q] Cl.Cl.NC(N)=NCCC[C@@H](C=O)NC(=O)CN(CCC1CCCCC1)C(=O)[C@H]1CCCCN1 [Example 10]
Task item: Which entry shows the lesser value of Enzyme Kass t-PA here, P or Q ? Indicate which entry you chose by stating its label.
Reply: P

* * *

- tested_target: Human plasmin (Homo sapiens)
- Construct: Human plasmin is purchased from Boehringer Mannheim; purchased Boehringer Mannheim, Indianapolis, Indiana
- Sequence (P00747 581-810 limits assumed): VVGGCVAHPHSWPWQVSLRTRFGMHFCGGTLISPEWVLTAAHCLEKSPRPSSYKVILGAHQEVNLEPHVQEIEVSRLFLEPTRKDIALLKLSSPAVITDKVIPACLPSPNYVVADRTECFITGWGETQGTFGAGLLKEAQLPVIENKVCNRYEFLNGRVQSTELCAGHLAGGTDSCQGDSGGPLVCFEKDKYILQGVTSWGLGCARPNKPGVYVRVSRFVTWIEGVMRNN
- Sequence (P00747 97-580 partner limits assumed): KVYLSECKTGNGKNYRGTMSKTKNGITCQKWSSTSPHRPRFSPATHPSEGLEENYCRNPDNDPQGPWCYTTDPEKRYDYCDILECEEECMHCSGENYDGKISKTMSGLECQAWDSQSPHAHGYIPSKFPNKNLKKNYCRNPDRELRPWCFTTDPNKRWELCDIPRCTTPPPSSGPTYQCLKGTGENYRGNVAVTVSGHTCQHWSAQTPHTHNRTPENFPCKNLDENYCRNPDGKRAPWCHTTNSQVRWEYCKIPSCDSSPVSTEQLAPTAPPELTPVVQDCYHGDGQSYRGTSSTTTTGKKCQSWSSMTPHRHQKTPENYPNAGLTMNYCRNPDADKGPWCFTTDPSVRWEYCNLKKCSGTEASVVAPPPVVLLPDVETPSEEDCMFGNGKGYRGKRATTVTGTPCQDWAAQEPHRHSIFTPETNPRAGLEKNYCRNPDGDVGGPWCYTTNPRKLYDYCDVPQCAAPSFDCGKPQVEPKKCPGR
- assay_explanation: Fibrinolytic protease selectivity, Kass, plasmin chromogenic assay
- Assay type: biochemical
- test_conditions: apparent association constant
Square brackets hold non-standard residues; d marks the D form. Peptide text beside a SMILES is read from it. dPip = O=C(O)[C@H]1CCCCN1; NEtG = CCNCC(=O)O
metric_name: Enzyme Kass Plasmin (L/mol × 10^6)

compound="CCN(CC(=O)N[C@H](C=O)CCCNC(=N)N)C(=O)[C@H]1CCCCN1.Cl.Cl [Example 2] (H-[dPip]-[NEtG]-Arg-aldehyde)" tested_target="Human plasmin (Homo sapiens)" metric_name="Enzyme Kass Plasmin" value_reported=0.013
compound=Cl.Cl.N=C(N)NCCC[C@@H](C=O)NC(=O)CN(CCCC(=O)O)C(=O)[C@H]1CCCCN1 tested_target="Human plasmin (Homo sapiens)" metric_name="Enzyme Kass Plasmin" value_reported=0.016
compound="CC(C)CCN(CC(=O)N[C@H](C=O)CCCN=C(N)N)C(=O)[C@H]1CCCCN1.Cl.Cl [Example 6, D--hPro--N(isoamyl)Gly--ArgH.2HCl]" tested_target="Human plasmin (Homo sapiens)" metric_name="Enzyme Kass Plasmin" value_reported=0.059

[A] Cl.Cl.N=C(N)NCCC[C@@H](C=O)NC(=O)CN(CCc1ccccc1)C(=O)[C@@H]1CCCN1 [Example 19, L--Pro--N(CH2 CH2 Ph)Gly--ArgH.2HCl]
[B] Cl.Cl.N=C(N)NCCC[C@@H](C=O)NC(=O)CN(CCC(=O)O)C(=O)[C@H]1CCCCN1 [Example 13, D--hPro--N(CH2 CH2 COOH)Gly--ArgH.2HCl]
[C] Cl.Cl.N=C(N)NCCC[C@@H](C=O)NC(=O)CN(C(=O)[C@H]1CCCCN1)c1ccccc1 [Example 11, D--hPro--N(Ph)Gly--ArgH.2HCl]
Task item: List by increasing Enzyme Kass Plasmin. Return the labels ranked in the requested order, please.
Reply: B, C, A

These measurements were taken from patent US6090787A.
